# experimental_target: UniProt:O14684
# Sequence (whole entry): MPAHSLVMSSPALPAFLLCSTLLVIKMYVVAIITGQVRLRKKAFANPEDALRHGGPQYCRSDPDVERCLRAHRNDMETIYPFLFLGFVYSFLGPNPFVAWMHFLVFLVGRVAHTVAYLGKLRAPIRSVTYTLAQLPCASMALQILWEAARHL
# assay_overview: Inhibition of human mPGES-1 assessed as enzyme remaining activity at 10 uM relative to control
Label t when Activity is at or above 90%; anything below gets f.

[[record]]
molecule = "Cc1ccc(Nc2nnc(-c3ccc4c(c3)OCO4)o2)c(C)c1"
class_label = "f"

[[record]]
molecule = "O=C(O)c1cc(O)c2cc(Cc3ccccc3)ccc2n1"
class_label = "t"

[[record]]
molecule = "NS(=O)(=O)c1ccc(NCc2cnc3ccccc3c2)cc1"
class_label = "f"

[[record]]
molecule = "O=C1Nc2ccccc2/C1=N/NS(=O)(=O)c1ccc(C(=O)O)cc1"
class_label = "t"

[[record]]
molecule = "CC(=O)NC(CCc1ccc(Cl)c(Cl)c1)c1cccc(O)c(=O)c1 (configuration not stated)"
class_label = "t"

[[record]]
molecule = "O=C(/C=C/c1ccccc1)NCCC1(O)C(=O)Nc2ccccc21 (configuration not stated)"
class_label = "t"

[[record]]
molecule = "O=C(O)c1ccccc1C(=O)OC1CCc2ccccc2C1 (configuration not stated)"
class_label = "f"

[[record]]
molecule = "CC(=O)c1cccc(NC(=O)Oc2ccc3c(C)cc(=O)oc3c2)c1"
class_label = "t"

[[record]]
molecule = "CC(=O)c1ccc(NCN2C(=O)c3ccccc3C2=O)cc1"
class_label = "f"

[[record]]
molecule = "O=C1C(=O)C(CCc2ccccc2)C(=O)/C1=C/c1ccccc1 (configuration not stated)"
class_label = "f"

[[record]]
molecule = "Cc1ccn(C(=O)C2=Cc3ccccc3OC2)c(=N)c1"
class_label = "f"

[[record]]
molecule = "O=C1C(C(O)c2ccccc2)CCCC1C(O)c1ccccc1 (configuration not stated)"
class_label = "f"

[[record]]
molecule = "N=C(N)/N=C(/C=C/c1ccccc1)CC1OC(=O)c2ccccc21 (configuration not stated)"
class_label = "f"

